# Tested on: eIF2.GTP.Met-tRNAi ternary complex
# method.summary: ATF-4 assay (firefly/renilla luciferase ratio) in CRL-2351 cell line
# Assay type: cell-based, human
# recorded.conditions: read-out: ATF-4 Cmax (μM): concentration corresponding to the maximal activity
Param threshold (10 µM) applies to Cmax; output Criterion met when value >= threshold, Criterion not met when value < threshold.

Some solved cases for reference:
O=C(Nc1ccc(Cl)c(C(F)(F)F)c1)Nc1ncccc1O    Criterion met
Cc1ccc(NC(=O)Nc2ccc(Cl)c(Cl)c2)cc1O    Criterion met
Cc1ccc(NC(=O)Nc2cc(C(F)(F)F)cc(C(F)(F)F)c2)cc1O    Criterion not met
O=C(Nc1ccc(Cl)c(Cl)c1)Nc1ncccc1O    Criterion met

Here is another molecule to look at.
Input line: Evaluate `O=C(Nc1ccc(Cl)c(C(F)(F)F)c1)Nc1ccc(Cl)c(C(F)(F)F)c1` : Cmax at minimum 10 µM?
Output line: Criterion not met

====

# Test system: eIF2.GTP.Met-tRNAi ternary complex
# method.summary: Ternary complex assay: dual luciferase F-luc/R-luc ratio in KLN-tTA/pBISA-DL(ATF-4) cells (HTS screen, 96-well hit confirmation, dose response)
# Assay type: cell-based, mouse
# recorded.conditions: cell line not stated; read-out: Ternary Complex Activity: Maximum effective dose Cmax
measure: Cmax
Please answer using the number first and the unit second.

CN(C(=O)Nc1cc(C(F)(F)F)cc(C(F)(F)F)c1)c1cc(C(F)(F)F)cc(C(F)(F)F)c1    10 µM

Input line: # lookup: Cmax of `Cc1ccc(N(C)C(=O)Nc2cc(C(F)(F)F)cc(C(F)(F)F)c2)cc1O`
Output line: 80 µM

====

# Tested on: eIF2.GTP.Met-tRNAi ternary complex
# method.summary: ATF-4 assay (firefly/renilla luciferase ratio) in CRL-2351 cell line
# Type: cell-based, human
# recorded.conditions: read-out: ATF-4 Cmax (μM): concentration corresponding to the maximal activity
measure: Cmax (µM)
Supply the numeric figure in µM, leaving out any unit text.

The following compounds have reported results that may help.
COc1cc(NC(=O)Nc2cc(C(F)(F)F)cc(C(F)(F)F)c2)ccc1C [Compound 9]    20
COc1cc(NC(=O)Nc2ccc(Cl)c(C(F)(F)F)c2)ccc1C [Compound 8]    10
O=C(Nc1cc(C(F)(F)F)cc(C(F)(F)F)c1)Nc1ncccc1O [Compound 28]    40
Cc1ccc(NC(=O)Nc2ccc(Cl)c(Cl)c2)cc1OCCN1CCOCC1 [Compound 15]    10

Input line: Consider the compound Cc1ccc(NC(=O)Nc2ccc(Cl)c(Cl)c2)cc1OCCN(C)C [Compound 11] and give its measured Cmax.
Output line: 20

====

# System: A549 human lung cancer cells
# method.summary: Cell proliferation SRB assay, A549
# Type: cell-based
# recorded.conditions: read-out: IC50 (μM), concentration that inhibits cell proliferation by 50%
measure: IC50 (µM)
The figure you give is taken to be in µM; do not add the unit.

Below: 2 molecules and their reported IC50.
O=C(Nc1ccc(Cl)c(C(F)(F)F)c1)Nc1ccc2nnsc2c1    0.8
O=C(Nc1ccc(Cl)c(Cl)c1)Nc1ccc2nnsc2c1    1.2

Input line: State its IC50 on A549 human lung cancer cells: `O=C(Nc1ccc(Cl)cc1)Nc1ccc2nonc2c1`
Output line: 1.3

====

Entries annotated with measured IC50
# System: CRL-2813 human melanoma cells
# method.summary: Cell proliferation SRB assay, CRL-2813
# Format: cell-based
# recorded.conditions: CRL2813, CRL-2813, read-out: IC50 (μM), concentration that inhibits cell proliferation by 50%
// units = µM; emit number, no label

Before answering, review these 3 worked examples.
O=C(Nc1ccc(Cl)cc1)Nc1ccc2nonc2c1 [KM094748]    0.3
O=C(Nc1ccc(Cl)c(C(F)(F)F)c1)Nc1ccc2nnsc2c1 [Compound 1780]    0.1
O=C(Nc1ccc(Cl)c(Cl)c1)Nc1ccc2nnsc2c1 [Compound 1781]    0.5

Could you now look at the following compound, please?
Input line: // query IC50 value for entry O=C(Nc1ccc(Cl)c(Cl)c1)Nc1cc([N+](=O)[O-])ccc1Cl [Compound 1527]
Output line: 20
